Listed here are molecules together with their documented solubility at 2 h.
# protocol details: Solubility testing of peptides at different pH
# Format: physicochemical
# experimental context: 50 mM phosphate buffer pH 6.5; target concentration 1 mg/ml; 2 hours agitation; read-out: Solubility Buffer pH 6.5
Starred links: 1 amine or outer side, 2 acyl side, 3 side chain; linkers in the order of their positions; H or OH if unused. Positions of bridges follow the written chain, without caps; N, C: chain ends. Non-standard residues stand in square brackets, D forms with d. Residues, ends and D or L forms follow the SMILES beside them. *: point of attachment. X3 = CN(CCCCC(=O)N[C@@H](CS[*:2])C(=O)[*:1])[*:3]; Trp(7-Me) = Cc1cccc2c(C[C@H](N)C(=O)O)c[nH]c12; X1 = O=C(CCCCN[*:3])N[C@@H](CS[*:2])C(=O)[*:1]; αMeLys(Me2) = CN(C)CCCC[C@](C)(N)C(=O)O; X2 = CN(C)[C@@H](CCCCN[*:1])C(=O)[*:2]; 2Nal = N[C@@H](Cc1ccc2ccccc2c1)C(=O)O; AEF = NCCOc1ccc(C[C@H](N)C(=O)O)cc1; 3Pal = N[C@@H](Cc1cccnc1)C(=O)O; αMeL = CC(C)C[C@](C)(N)C(=O)O; Thp = NC1(C(=O)O)CCOCC1; Me2NCH2CH2 = CN(C)CC*; Aib = CC(C)(N)C(=O)O; Ahx = NCCCCCC(=O)O; Ava = NCCCCC(=O)O; Sar = CNCC(=O)O

Would you please look over these solved cases?
COc1ccc(C[C@@H]2NC(=O)[C@@H]3CSSC[C@H](NC(=O)CCCCNC(=O)CC[C@@H](C(=O)N[C@@H](CC(N)=O)C(=O)N[C@@H](CC(N)=O)C(N)=O)NC(=O)C(C)(C)NC(=O)[C@H](Cc4ccc5ccccc5c4)NC2=O)C(=O)N[C@@H](CC(N)=O)C(=O)N[C@@H]([C@@H](C)O)C(=O)N[C@@H](Cc2c[nH]c4ccccc24)C(=O)N[C@@H](CCC(N)=O)C(=O)N3)cc1 [compound 1] ([Ava]CNTWQCY(Me)[2Nal][Aib]ENN-NH2; disulfide 2-7; lactam N-11) = < 50 µg/mL
CC(=O)NCCCC[C@@H]1NC(=O)[C@H](Cc2c[nH]c3c(C)cccc23)NC(=O)[C@H]([C@@H](C)O)NC(=O)[C@H](CC(N)=O)NC(=O)[C@@H]2CSSC[C@H](NC1=O)C(=O)N[C@@H](Cc1ccc(OCCN(C)C)cc1)C(=O)N[C@@H](Cc1ccc3ccccc3c1)C(=O)NC1(CCOCC1)C(=O)N[C@H](C(=O)N[C@@H](CC(N)=O)C(=O)N[C@@H](Cc1cccnc1)C(N)=O)CCC(=O)NCCCCC(=O)N2 [compound 51] ([Ava]CNT[Trp(7-Me)]K(Ac)CY(Me2NCH2CH2)[2Nal][Thp]EN[3Pal]-NH2; disulfide 2-7; lactam N-11) = ≥ 930 µg/mL
CC(=O)N[C@H]1CCCCNC(=O)[C@@H]2CSSC[C@H](NC(=O)[C@H](CCC(N)=O)NC(=O)[C@H](Cc3c[nH]c4ccccc34)NC1=O)C(=O)N[C@@H](Cc1ccc(OCCN)cc1)C(=O)N[C@@H](Cc1ccc3ccccc3c1)C(=O)N[C@@](C)(CC(C)C)C(=O)N[C@H](C(=O)N[C@@H](CC(N)=O)C(=O)N[C@@H](CC(N)=O)C(N)=O)CCC(=O)N(C)CCCCC(=O)N2 [compound 14] (Ac-KWQC[AEF][2Nal][αMeL]ENN-NH2; linker 1-4-8 via X3) = 30 µg/mL
C[C@@H](O)[C@@H]1NC(=O)[C@H](CC(N)=O)NC(=O)[C@@H]2CSSC[C@H](NC(=O)[C@H](CCC(N)=O)NC(=O)[C@H](Cc3c[nH]c4ccccc34)NC1=O)C(=O)N[C@@H](Cc1ccc(OCCN)cc1)C(=O)N[C@@H](Cc1ccc3ccccc3c1)C(=O)NC(C)(C)C(=O)N[C@H](C(=O)N[C@@H](CC(N)=O)C(=O)NCC(N)=O)CC(=O)NCCCCCC(=O)N2 [compound 9] ([Ahx]CNTWQC[AEF][2Nal][Aib]DNG-NH2; disulfide 2-7; lactam N-11) = ≥ 1060 µg/mL
CC(=O)NCCCC[C@@H]1NC(=O)[C@H](Cc2c[nH]c3ccccc23)NC(=O)[C@@H](N(C)C)CCCCNC(=O)[C@@H]2CSSC[C@H](NC1=O)C(=O)N[C@@H](Cc1ccc(OCCN(C)C)cc1)C(=O)N[C@@H](Cc1ccc3ccccc3c1)C(=O)N[C@@](C)(CCCCN(C)C)C(=O)N[C@H](C(=O)N[C@@H](CC(N)=O)C(=O)N[C@@H](Cc1cccnc1)C(=O)N(C)CC(N)=O)CCC(=O)NCCCCC(=O)N2 [compound 36] ([Ava]C[X2]WK(Ac)CY(Me2NCH2CH2)[2Nal][αMeLys(Me2)]EN[3Pal][Sar]-NH2; disulfide 2-6; lactam N-10) = ≥ 1100 µg/mL

[in] Report solubility at 2 h for CC(=O)N[C@H]1CCCCNC(=O)[C@@H]2CSSC[C@H](NC(=O)[C@H](CCC(N)=O)NC(=O)[C@H](Cc3c[nH]c4ccccc34)NC1=O)C(=O)N[C@@H](Cc1ccc(OCCN(C)C)cc1)C(=O)N[C@@H](Cc1ccc3ccccc3c1)C(=O)NC(C)(C)C(=O)N[C@H](C(=O)N[C@@H](C)C(=O)NCC(N)=O)CCC(=O)NCCCCC(=O)N2 [compound 32] (Ac-KWQCY(Me2NCH2CH2)[2Nal][Aib]EAG-NH2; linker 1-4-8 via X1)
[out] ≥ 880 µg/mL

[in] Report measured solubility at 2 h; entry is COc1ccc(C[C@@H]2NC(=O)[C@@H]3CSSC[C@H](NC(=O)CCCCNC(=O)CC[C@@H](C(=O)N[C@@H](CC(N)=O)C(=O)NCC(N)=O)NC(=O)C(C)(C)NC(=O)[C@H](Cc4ccc5ccccc5c4)NC2=O)C(=O)N[C@@H](CC(N)=O)C(=O)N[C@@H]([C@@H](C)O)C(=O)N[C@@H](Cc2c[nH]c4ccccc24)C(=O)N[C@@H](CCC(N)=O)C(=O)N3)cc1 [compound 4] ([Ava]CNTWQCY(Me)[2Nal][Aib]ENG-NH2; disulfide 2-7; lactam N-11)
[out] 20 µg/mL

[in] Give me measured solubility at 2 h, please, for this molecule: "C[C@@H](O)[C@@H]1NC(=O)[C@H](CC(N)=O)NC(=O)[C@@H]2CSSC[C@H](NC(=O)[C@H](CCC(N)=O)NC(=O)[C@H](Cc3c[nH]c4ccccc34)NC1=O)C(=O)N[C@@H](Cc1ccc(OCCN(C)C)cc1)C(=O)N[C@H](Cc1ccc3ccccc3c1)C(=O)NC(C)(C)C(=O)N[C@H](C(=O)N[C@@H](CC(N)=O)C(=O)N[C@@H](CC(N)=O)C(N)=O)CCC(=O)NCCCCC(=O)N2"
[out] ≥ 1000 µg/mL

[in] Please supply the value of reported solubility at 2 h for the item CC(=O)N[C@H]1CCCCNC(=O)[C@@H]2CSSC[C@H](NC(=O)[C@H](CCC(N)=O)NC(=O)[C@H](Cc3c[nH]c4ccccc34)NC1=O)C(=O)N[C@@H](Cc1ccc(OCCN)cc1)C(=O)N[C@@H](Cc1ccc3ccccc3c1)C(=O)NC1(CCOCC1)C(=O)N[C@H](C(=O)N[C@@H](CC(N)=O)C(=O)NCC(N)=O)CCC(=O)N(C)CCCCC(=O)N2 [compound 16] (Ac-KWQC[AEF][2Nal][Thp]ENG-NH2; linker 1-4-8 via X3)
[out] ≥ 950 µg/mL

Reference for the values: patent US20260258084A1
